Ref: patent US20220135701A1

- EXPERIMENTAL SYSTEM: T1, cynomolgus monkey MerTK (cynomolgus monkey, UniProt A0A2K5V1H9 32-505)
- T1 construct: Soluble analyte in SPR; also called Cyno MerTK
- T1 sequence: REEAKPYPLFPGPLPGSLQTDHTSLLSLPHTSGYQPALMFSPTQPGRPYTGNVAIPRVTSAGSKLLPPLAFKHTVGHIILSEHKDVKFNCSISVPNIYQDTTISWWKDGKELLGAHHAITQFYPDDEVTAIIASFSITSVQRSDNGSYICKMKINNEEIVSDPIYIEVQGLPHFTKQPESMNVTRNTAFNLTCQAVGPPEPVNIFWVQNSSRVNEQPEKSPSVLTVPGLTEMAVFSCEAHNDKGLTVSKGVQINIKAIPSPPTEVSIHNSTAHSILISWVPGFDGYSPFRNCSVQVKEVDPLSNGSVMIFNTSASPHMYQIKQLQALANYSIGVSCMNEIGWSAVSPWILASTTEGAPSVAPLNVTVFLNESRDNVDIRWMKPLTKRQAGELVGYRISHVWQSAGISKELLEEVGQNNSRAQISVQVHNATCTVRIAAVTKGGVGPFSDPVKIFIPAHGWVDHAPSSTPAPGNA
- PROCEDURE DETAILS: SPR BIAcore T200, Ab captured, 37C
- Procedure: All binding affinity determinations were obtained using Surface Plasmon Resonance (SPR) measurements from a BIAcore™-T200 instrument. Briefly, each rabbit or humanized antibody was captured to achieve approximately 100 RU (Response Units). […] Association rates (kₒₙ) and dissociation rates (koff) were calculated using a simple one-to-one Langmuir binding model (BIAcore T200 evaluation software version 2.0). The equilibrium dissociation constant (KD) was calculated as the ratio koff/kₒₙ.
MEASURED METRIC: Kd (nM)
Note: unit nM is implicit; provide only the numeric part.

INPUT: # return recorded Kd for input h10C3.v1 (antibody, V domains shown, also called h10C3.V1 (Parent); 10C3 Humanized mAb V1) VH: EQQLVESGGGLVQPGGSLRLSCAASGFSLSGYTMGWVRQAPGKGLEYIGVISSGGTTYYTNWAKGRFTISKDSSKNTVYLQMGSLRAEDMAVYFCARVAFTAYGGGGFPTLHRLDLWGQGTLVTVSS VL: DQVLTQSPDSLAVSLGERATINCQSSESVYNNDYLAWYQQKPGQPPKLLIYSASTLASGVPDRFSGSGSGTDFTLTISSLQAEDVAVYYCAGGYLGNNVFGGGTKVEIK
OUTPUT: 5.3

Further cases:
INPUT: Answer with the recorded Kd for the binder listed here: Rbt9E3.FN (antibody, V domains shown, Recombinant rabbit monoclonal antibody, Expi293, protein A purified) VH: QSVEESGGRLVTPGTPLTLTCTVSGFSLSSNAMSWVRQAPGKGLEWIGIISSSGSTYSASWAKGRFTISKTSTTMDLKITSPTTEDTATYFCARVGFFVGYGAYDYGIIHRLDLWGQGTLVTVSS VL: AAVLTQTPSPVSAAVGGTVSISCQSSKSIYNNNWLSWYQQKPGQPPKLLIYDASDLASGVPSRFEGSGSGTEFTLTISDLECDDAATYYCAGGYSGDSDYAFGGGTEVVVK
OUTPUT: 2.5
